readout.type: melting point

Examples with answers:
• Cl.O=C(NCCCC1CC1)c1ccc(N2CCC(Nc3ccc(F)cc3C(F)(F)F)CC2)nn1 = 143 to 147 °C
• O=C(NCCCC1CC1)c1ccc(N2CCC(N3C(=O)C(F)(F)c4ccccc43)CC2)nn1 = 51 to 53 °C
• CCCCCNC(=O)c1ccc(N2CCC(Nc3ccc(F)cc3C(F)(F)F)CC2)nn1.Cl = 136 to 139 °C
• Cl.O=C(NCCC1CC1)c1ccc(N2CCC(Nc3ccc(F)cc3C(F)(F)F)CC2)nn1 = 134 to 137 °C
• Cl.O=C(NCCCC1CC1)c1ccc(N2CCC(Nc3ccccc3C(F)(F)F)CC2)nn1 = 117 to 121 °C

// switching to the query molecule
Challenge: I would be grateful if you could share the reported melting point for Cl.O=C(NCCC1CC1)c1ccc(N2CCC(Nc3ccccc3C(F)(F)F)CC2)nn1 .
Response given: 158 to 163 °C
